Target under test: T1, SARS-CoV-2 S on CHO-S cells (SARS-CoV-2, UniProt P0DTC2 14-1273)
T1 construct: whole, on cells
Measurement notes: flow cytometry, CHO-S cells
Parameter measured: Bmax

binder="NRCoV2-18 VHH-Fc (Fc fusion, bivalent VHH-Fc) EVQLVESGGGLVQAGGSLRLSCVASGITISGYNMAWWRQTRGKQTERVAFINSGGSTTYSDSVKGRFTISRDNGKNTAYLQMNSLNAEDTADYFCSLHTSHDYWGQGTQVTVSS" result=18300
binder="NRCoV2-11 VHH-Fc (Fc fusion, bivalent VHH-Fc) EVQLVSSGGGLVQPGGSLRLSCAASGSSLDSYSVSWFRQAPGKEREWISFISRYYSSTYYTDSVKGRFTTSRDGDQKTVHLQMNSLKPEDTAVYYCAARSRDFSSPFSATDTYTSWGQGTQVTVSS" result=18200
